// Ki lookup, one value per entry
target: JAK3 (Homo sapiens); assay: JAK3 inhibition assay (33P incorporation into poly(Glu)4Tyr); format: biochemical; conditions: enzyme inhibition, Table 5

The examples below pair each entry with its known result.
1) CC(=O)Nc1ccccc1-c1c(Cl)cnc2[nH]ccc12 : > 5000 nM
2) CN(Cc1cccnc1)c1cccc(-c2ccnc3[nH]ccc23)n1 : 500 to 5000 nM
3) Cc1ccc(-c2ccnc3[nH]ccc23)cc1C : < 500 nM
4) CN(C)Cc1cccc(-c2ccnc3[nH]ccc23)c1 : < 500 nM
5) Nc1ccccc1-c1c(Cl)cnc2[nH]ccc12 : > 5000 nM
6) O=C(CC(F)(F)F)N1CC=C(c2ccnc3[nH]ccc23)CC1 : 500 to 5000 nM
7) CC(C)(C)OC(=O)N1CC=C(c2ccnc3[nH]ccc23)CC1 : < 500 nM
8) O=C(O)c1cccc(-c2ccnc3[nH]ccc23)c1 : 500 to 5000 nM
9) CC(=O)N1CCCN(c2cccc(-c3c(Cl)cnc4[nH]ccc34)n2)CC1 : < 500 nM
10) CS(=O)(=O)Nc1cccc(CC(=O)Nc2cc(-c3ccnc4[nH]ccc34)cs2)c1 : < 500 nM

# input Query for JAK3 (Homo sapiens): what Ki does the record show for CC(C)Oc1ccc(-c2ccnc3[nH]ccc23)cc1 ?
# output < 500 nM

# input Please answer likewise for CCC(CO)NC(=O)c1ccc(-c2ccnc3[nH]ccc23)s1 (racemic)
# output < 500 nM

# input Please answer likewise for Clc1cc(-c2ccnc3[nH]ccc23)ccn1
# output 500 to 5000 nM

# input Please answer likewise for COC(=O)c1ccccc1-c1ccnc2[nH]ccc12
# output > 5000 nM

# input Please answer likewise for CC(C)(Nc1nc(-c2ccnc3[nH]ccc23)nc2ccccc12)C(=O)NCC(F)(F)F
# output 500 to 5000 nM

* * *

// pKi lookup, one value per entry
target: UniProtKB Q13464; experiment: ROCK-I inhibition assay (radioactive enzyme assay, MBP substrate); assay type: biochemical; settings: enzyme inhibition, Ki(app), Table 5
Sequence (Q13464 whole entry): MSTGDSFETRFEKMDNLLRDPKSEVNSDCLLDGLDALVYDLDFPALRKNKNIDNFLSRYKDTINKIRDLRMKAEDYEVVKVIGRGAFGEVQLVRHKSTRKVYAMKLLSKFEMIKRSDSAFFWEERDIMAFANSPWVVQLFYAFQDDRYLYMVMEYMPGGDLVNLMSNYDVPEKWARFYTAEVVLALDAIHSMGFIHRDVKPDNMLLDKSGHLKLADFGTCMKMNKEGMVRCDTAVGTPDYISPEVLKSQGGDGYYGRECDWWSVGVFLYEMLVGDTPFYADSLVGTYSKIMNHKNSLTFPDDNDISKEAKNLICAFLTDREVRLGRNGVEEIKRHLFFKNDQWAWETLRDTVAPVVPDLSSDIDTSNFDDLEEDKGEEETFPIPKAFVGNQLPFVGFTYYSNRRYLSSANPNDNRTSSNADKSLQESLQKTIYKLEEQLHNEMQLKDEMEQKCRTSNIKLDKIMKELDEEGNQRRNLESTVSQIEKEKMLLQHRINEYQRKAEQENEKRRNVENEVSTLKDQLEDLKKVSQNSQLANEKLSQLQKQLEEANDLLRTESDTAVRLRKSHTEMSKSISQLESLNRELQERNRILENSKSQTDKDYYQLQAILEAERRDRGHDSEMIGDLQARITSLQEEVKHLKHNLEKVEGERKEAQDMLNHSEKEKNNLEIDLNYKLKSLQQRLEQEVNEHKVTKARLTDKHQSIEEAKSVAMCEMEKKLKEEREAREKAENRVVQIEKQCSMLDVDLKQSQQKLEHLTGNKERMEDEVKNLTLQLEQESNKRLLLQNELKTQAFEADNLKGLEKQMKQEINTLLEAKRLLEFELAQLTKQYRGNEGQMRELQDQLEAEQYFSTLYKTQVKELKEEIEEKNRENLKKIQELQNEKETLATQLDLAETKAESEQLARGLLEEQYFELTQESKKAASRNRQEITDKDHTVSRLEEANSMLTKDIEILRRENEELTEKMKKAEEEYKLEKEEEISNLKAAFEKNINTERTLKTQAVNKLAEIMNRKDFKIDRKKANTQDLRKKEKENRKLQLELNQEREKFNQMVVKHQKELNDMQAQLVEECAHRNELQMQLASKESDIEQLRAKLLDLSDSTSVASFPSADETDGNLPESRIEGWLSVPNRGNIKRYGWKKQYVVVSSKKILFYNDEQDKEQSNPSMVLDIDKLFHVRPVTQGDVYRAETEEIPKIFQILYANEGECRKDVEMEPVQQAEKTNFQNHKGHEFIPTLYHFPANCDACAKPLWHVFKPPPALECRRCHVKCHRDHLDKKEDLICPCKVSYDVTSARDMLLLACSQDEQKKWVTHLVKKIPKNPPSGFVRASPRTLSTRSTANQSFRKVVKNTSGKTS
pKi: −log10 of the molar value.

The examples below pair each entry with its known result.
1) CC(C)(C#N)c1cccc(-c2ccnc3[nH]ccc23)n1 : > 6.30
2) Cc1cccnc1-c1ccnc2[nH]ccc12 : 5.30 to 6.30
3) CC(=O)N1[C@H](C)CN(c2cccc(-c3ccnc4[nH]ccc34)n2)C[C@@H]1C : 5.30 to 6.30
4) COc1cc(-c2ccnc3[nH]ccc23)cc(OC)c1OC : 5.30 to 6.30
5) Clc1cnc2[nH]ccc2c1-c1cccc(NC2CCCC2)n1 : 5.30 to 6.30

# context switch: different molecule, same pKi
# input Please give the measured pKi for this molecule: CCC(C)CNc1cccc(-c2ccnc3[nH]ccc23)n1 (stereo not drawn)
# output 5.30 to 6.30

* * *

Target: JAK3 (Homo sapiens, UniProt P52333)
Sequence (P52333 1-1124): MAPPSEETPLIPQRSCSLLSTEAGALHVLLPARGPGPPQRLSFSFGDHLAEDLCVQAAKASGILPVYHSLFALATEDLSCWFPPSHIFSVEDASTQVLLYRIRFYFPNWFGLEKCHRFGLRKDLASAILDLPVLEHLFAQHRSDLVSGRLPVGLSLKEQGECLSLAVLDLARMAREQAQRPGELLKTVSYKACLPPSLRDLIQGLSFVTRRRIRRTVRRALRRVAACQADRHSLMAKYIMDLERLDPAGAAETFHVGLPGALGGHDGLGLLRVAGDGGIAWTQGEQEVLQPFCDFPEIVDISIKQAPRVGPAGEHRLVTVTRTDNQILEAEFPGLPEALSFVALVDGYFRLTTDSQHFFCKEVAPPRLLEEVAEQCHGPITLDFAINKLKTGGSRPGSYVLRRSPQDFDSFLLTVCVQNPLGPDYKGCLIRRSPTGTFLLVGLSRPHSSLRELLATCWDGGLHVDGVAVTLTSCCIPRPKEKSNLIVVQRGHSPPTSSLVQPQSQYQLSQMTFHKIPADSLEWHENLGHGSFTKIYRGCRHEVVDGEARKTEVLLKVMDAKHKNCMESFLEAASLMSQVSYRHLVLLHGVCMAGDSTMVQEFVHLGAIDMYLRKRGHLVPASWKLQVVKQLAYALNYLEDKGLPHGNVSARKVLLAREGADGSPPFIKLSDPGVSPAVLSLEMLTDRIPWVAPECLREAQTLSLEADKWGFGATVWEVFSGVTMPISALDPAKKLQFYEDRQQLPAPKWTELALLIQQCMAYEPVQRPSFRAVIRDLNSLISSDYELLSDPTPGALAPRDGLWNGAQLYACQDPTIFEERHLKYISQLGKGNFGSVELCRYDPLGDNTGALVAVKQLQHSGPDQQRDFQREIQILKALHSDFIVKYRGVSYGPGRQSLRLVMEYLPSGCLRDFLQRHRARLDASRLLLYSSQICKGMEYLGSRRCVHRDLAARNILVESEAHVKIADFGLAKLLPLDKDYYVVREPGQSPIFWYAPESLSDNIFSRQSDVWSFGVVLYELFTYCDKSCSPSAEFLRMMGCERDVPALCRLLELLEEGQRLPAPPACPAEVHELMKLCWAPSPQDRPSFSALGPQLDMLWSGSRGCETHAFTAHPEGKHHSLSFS
Experiment: JAK3 inhibition assay (33P incorporation into poly(Glu)4Tyr)
Assay type: biochemical
Details: Table 6; enzyme inhibition data (Ki)
Description: Compounds were screened for their ability to inhibit JAK using the assay shown below. Reactions were carried out in a kinase buffer containing 100 mM HEPES (pH 7.4), 1 mM DTT, 10 mM MgCl2, 25 mM NaCl, and 0.01% BSA. […] To each well of a 96 well polycarbonate plate was added 1.5 μl of a candidate JAK3 inhibitor along with 50/1 of kinase buffer containing 2 μM poly(Glu)4Tyr and 10 μM ATP. […] After washing, 60 μl of scintillation fluid was added and ^33P incorporation detected on a Perkin Elmer TopCount.
pKi: −log10 of the molar value.
measured property: pKi

The examples below pair each entry with its known result.
1. CCN(CCC#N)C(=O)c1cc(-c2ccnc3[nH]ccc23)c[nH]1 : > 6.30
2. Cc1cc(F)ccc1-c1ccnc2[nH]ccc12 : 5.30 to 6.30
3. O=C(NCC(F)(F)F)[C@H](CO)Nc1nc(-c2ccnc3[nH]ccc23)ncc1F : > 6.30
4. C#CCNC(=O)c1cc(-c2ccnc3[nH]ccc23)c[nH]1 : > 6.30
5. COc1cccc(Cl)c1-c1ccnc2[nH]ccc12 : < 5.30
6. Clc1cnc2[nH]ccc2c1-c1csc2ccccc12 : > 6.30
7. CCCN(CCC)C(=O)c1cc(-c2ccnc3[nH]ccc23)c[nH]1 : > 6.30
8. COc1cccc(-c2ccnc3[nH]ccc23)c1OC : 5.30 to 6.30

# context switch: different compound, same pKi
# input Please give the measured pKi for this compound: O=C(c1cc(-c2c(Cl)cnc3[nH]ccc23)c[nH]1)N1CCC(CO)CC1
# output > 6.30

* * *

target: JAK3 (Homo sapiens); experiment: JAK3 inhibition assay (33P incorporation into poly(Glu)4Tyr); format: biochemical; conditions: Table 6; enzyme inhibition data (Ki)
pKi: −log10 of the molar value.
measured property: pKi

The examples below pair each entry with its known result.
1) CCOC(=O)C1CCN(C(=O)c2cc(-c3ccnc4[nH]ccc34)c[nH]2)CC1 [compound 364] : 5.30 to 6.30
2) O=C(c1cc(-c2ccnc3[nH]ccc23)c[nH]1)N1CCC(CO)CC1 [compound 363] : 5.30 to 6.30
3) COc1ccc(OC)c(Nc2c(Cl)cnc3[nH]ccc23)c1 [compound 154] : > 6.30
4) CCCS(=O)(=O)N1CC[C@@H](Nc2c(Cl)cnc3[nH]ccc23)C1 [compound 180] : > 6.30

# context switch: different molecule, same pKi
# input Please give the measured pKi for this molecule: N#CCNC(=O)c1cc(-c2ccnc3[nH]ccc23)c[nH]1 [compound 295]
# output > 6.30

* * *

biological target: JAK3 (Homo sapiens, UniProt P52333); assay: JAK3 inhibition assay (33P incorporation into poly(Glu)4Tyr); assay type: biochemical; conditions: enzyme inhibition, Table 5
pKi: −log10 of the molar value.
measured property: pKi

The examples below pair each entry with its known result.
1) Cc1cc(C)cc(-c2ccnc3[nH]ccc23)c1 : 5.30 to 6.30
2) c1cc(-c2ccnc3[nH]ccc23)c2ccoc2c1 : > 6.30
3) COc1cc(-c2ccnc3[nH]ccc23)cc(OC)c1OC : 5.30 to 6.30

# input Query for JAK3 (Homo sapiens, UniProt P52333): what pKi does the record show for CN(CCO)c1cccc(-c2c(Cl)cnc3[nH]ccc23)n1 ?
# output > 6.30

# input Please answer likewise for C1=C(c2ccnc3[nH]ccc23)CCNC1
# output 5.30 to 6.30

# input Please answer likewise for Clc1ccccc1CNc1cccc(-c2ccnc3[nH]ccc23)n1
# output 5.30 to 6.30

# input Please answer likewise for CCC(CC)NC(=O)c1ccc(-c2ccnc3[nH]ccc23)s1
# output > 6.30

# input Please answer likewise for Clc1cnc2[nH]ccc2c1-c1ccsc1
# output > 6.30

# input Please answer likewise for c1cc(CN2CCOCC2)cc(-c2ccnc3[nH]ccc23)c1
# output 5.30 to 6.30

# input Please answer likewise for N#Cc1ccc(-c2ccnc3[nH]ccc23)s1
# output > 6.30
